Listed below: Plant response rating, Soybean values for each entry.
System: soybean (Glycine max)
Assay: Test C greenhouse herbicide test, pre- and postemergence
Type: in vivo
Settings: Postemergence, 31 g ai/ha; scale 0 to 100 (0 no effect, 100 complete control)
Measure: Plant response rating, Soybean

>>> print(df.to_string())
                                   compound                         measure  numeric_value
0  CSCC(=O)Oc1c(C)nn(C)c(=O)c1-c1cccc2ccccc12 [Compound 171]  Plant response rating, Soybean             10
1  Cc1nn(C)c(=O)c(-c2cc(F)cc3ccccc23)c1OS(C)(=O)=O [Compound 115]  Plant response rating, Soybean             10
2  CCC(=O)Oc1c(C)nn(C)c(=O)c1-c1ccc(Br)c2ccccc12 [Compound 133]  Plant response rating, Soybean             55
3  COC(=O)Oc1c(Br)nn(C)c(=O)c1-c1c(C)ccc2ccccc12 [Compound 137]  Plant response rating, Soybean             10
4  Cc1ccc2ccccc2c1-c1c(OC(=O)N2CCOCC2)c(Br)nn(C)c1=O [Compound 176]  Plant response rating, Soybean              5

###

Test system: ryegrass, Italian (Italian ryegrass, Lolium multiflorum)
Experiment: Test A greenhouse herbicide test, pre- and postemergence
Type: in vivo
Conditions: Postemergence, 125 g ai/ha; 0 to 100 scale where 0 is no effect and 100 is complete control
Measure: Plant response rating, Ryegrass, Italian

>>> df
                                   compound  numeric_value
0  COC(=O)Oc1c(Cl)nn(C)c(=O)c1-c1c(C)sc2ccc(Cl)cc12 [Compound 101]             30
1  Cc1ccc2ccccc2c1-c1c(OC(=O)C2CC2)c(C)nn(C)c1=O [Compound 76]             40
2  COc1ccc2ccccc2c1-c1c(O)c(C)nn(C)c1=O [Compound 40]             90
3  COc1nn(C)c(=O)c(-c2c(C)sc3ccc(Cl)cc23)c1O [Compound 100]             90
4  Cc1sc2ccccc2c1-c1c(OC(=O)OC(C)C)c(Cl)nn(C)c1=O [Compound 94]             30
5  Cc1nn(C)c(=O)c(-c2cc(F)cc3ccccc23)c1OS(C)(=O)=O [Compound 115]            100
6  CCc1ccc2ccc(C)cc2c1-c1c(O)c(C)nn(C)c1=O [Compound 103]            100
7  CC(=O)Oc1ccc2cccc(-c3c(OC(C)=O)c(C)nn(C)c3=O)c2c1 [Compound 124]              0

###

Below is a list of entries, each paired with its recorded Plant response rating, Wheat value.
Tested on: wheat (winter wheat, Triticum aestivum)
Experiment: Test C greenhouse herbicide test, pre- and postemergence
Type: in vivo
Conditions: Preemergence, 62 g ai/ha; scale 0 to 100, 0 is no effect, 100 is complete control
Measure: Plant response rating, Wheat

In [3]: df
Out[3]:
                                 smiles_text                            target_entity  result
 0  CSCC(=O)Oc1c(C)nn(C)c(=O)c1-c1cccc2ccccc12  wheat (winter wheat, Triticum aestivum)       5
 1  CC(=O)Oc1c(C)nn(C)c(=O)c1-c1c(C)sc2ccc(C)cc12  wheat (winter wheat, Triticum aestivum)       0
 2  CC(=O)Oc1c(C)nn(C)c(=O)c1-c1ccc(F)c2ccccc12  wheat (winter wheat, Triticum aestivum)       0
 3  CCCC(=O)Oc1c(C)nn(C)c(=O)c1-c1c(C)sc2c(C)cc(C)cc12  wheat (winter wheat, Triticum aestivum)       0
 4  C#CCOC(=O)Oc1c(C)nn(C)c(=O)c1-c1c(C)sc2ccc(C)cc12  wheat (winter wheat, Triticum aestivum)       0
 5  Cc1nn(C)c(=O)c(-c2c(C)sc3ccc(Cl)cc23)c1O  wheat (winter wheat, Triticum aestivum)       5
 6  COc1nn(C)c(=O)c(-c2c(C)ccc3ccccc23)c1OC(=O)OC(C)C  wheat (winter wheat, Triticum aestivum)       0
 7  COC(=O)Oc1c(C)nn(C)c(=O)c1-c1c(C)sc2c(C)cc(C)cc12  wheat (winter wheat, Triticum aestivum)       0
 8      Cc1ccc2ccccc2c1-c1c(O)c(Cl)nn(C)c1=O  wheat (winter wheat, Triticum aestivum)      45
 9  Cc1cc(C)c2sc(C)c(-c3c(OC(=O)OCCCl)c(C)nn(C)c3=O)c2c1  wheat (winter wheat, Triticum aestivum)       0
10  CCOC(=O)Oc1c(C)nn(C)c(=O)c1-c1c(C)sc2c(C)cc(C)cc12  wheat (winter wheat, Triticum aestivum)       0

###

System: blackgrass (Alopecurus myosuroides)
Assay: Test D controlled growth environment herbicide test, pre- and postemergence
Format: in vivo
Conditions: Postemergence, 125 g ai/ha; visual rating on scale 0 (no effect) to 100 (complete control), 14 to 21 d
Measure: Plant response rating, Blackgrass

>>> df
                                smiles_text                        target_entity                            measure  numeric_value
0  CC(=O)Oc1c(Br)nn(C)c(=O)c1-c1c(C)ccc2ccccc12  blackgrass (Alopecurus myosuroides)  Plant response rating, Blackgrass             60
1  Cc1cc(C)c2sc(C)c(-c3c(OC(=O)OCCCl)c(C)nn(C)c3=O)c2c1  blackgrass (Alopecurus myosuroides)  Plant response rating, Blackgrass             90
2  CC(=O)Oc1c(C)nn(C)c(=O)c1-c1c(C)cc(C)c2ccccc12  blackgrass (Alopecurus myosuroides)  Plant response rating, Blackgrass             75
3  CC(=O)Oc1c(C)nn(C)c(=O)c1-c1c(C)sc2c(C)cc(C)cc12  blackgrass (Alopecurus myosuroides)  Plant response rating, Blackgrass             90
4  CCOC(=O)Oc1c(C)nn(C)c(=O)c1-c1c(C)sc2c(C)cc(C)cc12  blackgrass (Alopecurus myosuroides)  Plant response rating, Blackgrass             75
5   Cc1ccc2sc(C)c(-c3c(O)c(C)nn(C)c3=O)c2c1  blackgrass (Alopecurus myosuroides)  Plant response rating, Blackgrass             70
6  CCC(=O)Oc1c(C)nn(C)c(=O)c1-c1c(C)sc2ccc(C)cc12  blackgrass (Alopecurus myosuroides)  Plant response rating, Blackgrass             80

###

Test system: foxtail, green (green foxtail, Setaria viridis)
Assay: Test D controlled growth environment herbicide test, pre- and postemergence
Format: in vivo
Settings: Preemergence, 31 g ai/ha
class 1 means recorded Plant response rating (scale of 0 to 100), Foxtail, Green is 40 or above; class 0 means it is below 40.

>>> print(df.to_string())
                                smiles_text  qualitative_label
0    Cc1ccc(-c2c(O)c(Br)nn(C)c2=O)c2ccccc12            class 0
1  CCOC(=O)Oc1c(C)nn(C)c(=O)c1-c1c(C)sc2ccc(C)cc12            class 0
2  C#CCOC(=O)Oc1c(C)nn(C)c(=O)c1-c1c(C)sc2ccc(C)cc12            class 0
3  COC(=O)Oc1c(C)nn(C)c(=O)c1-c1c(C)sc2c(C)cc(C)cc12            class 1
4    COc1nn(C)c(=O)c(-c2c(C)ccc3ccccc23)c1O            class 1

###

System: galium (catchweed bedstraw, Galium aparine)
Test: Test C greenhouse herbicide test, pre- and postemergence
Type: in vivo
Conditions: Postemergence, 31 g ai/ha; 0 to 100 scale (0 no effect, 100 complete control)
Measure: Galium plant response rating

                                smiles_text                       measure  numeric_value
0  CC(=O)Oc1c(C)nn(C)c(=O)c1-c1c(C)oc2ccc(C)cc12  Galium plant response rating             50
1  CC(=O)Oc1c(C)nn(C)c(=O)c1-c1c(C)sc2c(C)cc(C)cc12  Galium plant response rating            100
2       Cc1cc(C)c2ccccc2c1-c1c(O)cnn(C)c1=O  Galium plant response rating             85
3  CCC(=O)Oc1c(C)nn(C)c(=O)c1-c1c(C)sc2c(C)cc(C)cc12  Galium plant response rating            100
4  CCOC(=O)Oc1c(C)nn(C)c(=O)c1-c1c(C)ccc2ccccc12  Galium plant response rating             90
5   Cc1ccc2sc(C)c(-c3c(O)c(C)nn(C)c3=O)c2c1  Galium plant response rating             90

Values compiled from patent US10597388B2.
